Entry source: patent US20210112813A1

For each record, write down the corresponding Control effect, Crabgrass.
# Test system: Crabgrass
# ASSAY REMARKS: Field plot test, non-cultivated weeds, pre-emergence soil treatment
# Format: in vivo
# ASSAY CONTEXT: Table 8, dose 600 ga.i./hm^2
Answers are plain numbers.

**Query** Provide Control effect, Crabgrass value for the following compound: CCc1cccc(C)c1N(C(=O)CCl)[C@@H](C)COC
**Result** 70

**Query** Provide Control effect, Crabgrass value for the following compound: COC[C@H](C)N(C(=O)CCl)c1c(C)csc1C
**Result** 70

**Query** Provide Control effect, Crabgrass value for the following compound: CCc1cccc(C)c1N(C(=O)CCl)C(C)COC (stereo not shown)
**Result** 60

Further cases:
**Query** Provide Control effect, Crabgrass value for the following compound: COCC(C)N(C(=O)CCl)c1c(C)csc1C (stereo not shown) [Dimethoxamide]
**Result** 70

---

# Test system: Amaranthusretroflexus
# ASSAY REMARKS: Field plot test, non-cultivated weeds, pre-emergence soil treatment
# Assay type: in vivo
# ASSAY CONTEXT: Table 8, dose 600 ga.i./hm^2
For each record, write down the corresponding Control effect, Amaranthusretroflexus.
Give bare numbers.

**Query** Provide Control effect, Amaranthusretroflexus value for the following compound: COCC(C)N(C(=O)CCl)c1c(C)csc1C (stereo not shown) [Dimethoxamide]
**Result** 55

**Query** Provide Control effect, Amaranthusretroflexus value for the following compound: CCc1cccc(C)c1N(C(=O)CCl)C(C)COC (stereo not shown)
**Result** 60

**Query** Provide Control effect, Amaranthusretroflexus value for the following compound: CCc1cccc(C)c1N(C(=O)CCl)[C@@H](C)COC
**Result** 75

Further cases:
**Query** Provide Control effect, Amaranthusretroflexus value for the following compound: COC[C@H](C)N(C(=O)CCl)c1c(C)csc1C
**Result** 80

---

# Test system: Lambsquarters
# ASSAY REMARKS: Field plot test, non-cultivated weeds, pre-emergence soil treatment
# Type: in vivo
# ASSAY CONTEXT: Table 8, dose 600 ga.i./hm^2
TEST READOUT: Control effect, Lambsquarters
One number for each entry.

**Query** Provide Control effect, Lambsquarters value for the following compound: CCc1cccc(C)c1N(C(=O)CCl)C(C)COC (stereo not shown)
**Result** 50

**Query** Provide Control effect, Lambsquarters value for the following compound: CCc1cccc(C)c1N(C(=O)CCl)[C@@H](C)COC
**Result** 50

**Query** Provide Control effect, Lambsquarters value for the following compound: COC[C@H](C)N(C(=O)CCl)c1c(C)csc1C
**Result** 75

From here, focus on the item given below.
**Query** Provide Control effect, Lambsquarters value for the following compound: COCC(C)N(C(=O)CCl)c1c(C)csc1C (stereo not shown) [Dimethoxamide]
**Result** 70

---

# Test system: Bristlegrass
# ASSAY REMARKS: Field plot test, non-cultivated weeds, pre-emergence soil treatment
# Format: in vivo
# ASSAY CONTEXT: Table 8, dose 600 ga.i./hm^2
For each record, write down the corresponding Control effect, Bristlegrass.
Numbers only.

// worked examples, Control effect, Bristlegrass included
**Query** Provide Control effect, Bristlegrass value for the following molecule: CCc1cccc(C)c1N(C(=O)CCl)C(C)COC (stereo not shown)
**Result** 45

**Query** Provide Control effect, Bristlegrass value for the following molecule: COCC(C)N(C(=O)CCl)c1c(C)csc1C (stereo not shown) [Dimethoxamide]
**Result** 50

**Query** Provide Control effect, Bristlegrass value for the following molecule: COC[C@H](C)N(C(=O)CCl)c1c(C)csc1C
**Result** 55

From here, focus on the item given below.
**Query** Provide Control effect, Bristlegrass value for the following molecule: CCc1cccc(C)c1N(C(=O)CCl)[C@@H](C)COC
**Result** 60
